Data credit: ChEMBL document CHEMBL2151031

- ASSAY_NOTES: Intrinsic clearance in mouse liver microsomes at 1 uM after 30 mins
- Assay type: ADME, Microsome
- TEST_SETTINGS: read-out: CLH

QUERY_SMILES	microsomal CLint at 1 µM, µL/min/mg
CCc1ccc2c(c1)[C@@H](NC[C@@H](O)[C@H](Cc1ccccc1)NC(=O)c1cc(-c3ccccn3)c(=O)n(C3CCCC3)c1)CC1(CCC1)O2	568

---

- TARGET_UNDER_TEST: Beta-secretase 1 (Homo sapiens, UniProt P56817)
- Sequence (P56817 whole entry): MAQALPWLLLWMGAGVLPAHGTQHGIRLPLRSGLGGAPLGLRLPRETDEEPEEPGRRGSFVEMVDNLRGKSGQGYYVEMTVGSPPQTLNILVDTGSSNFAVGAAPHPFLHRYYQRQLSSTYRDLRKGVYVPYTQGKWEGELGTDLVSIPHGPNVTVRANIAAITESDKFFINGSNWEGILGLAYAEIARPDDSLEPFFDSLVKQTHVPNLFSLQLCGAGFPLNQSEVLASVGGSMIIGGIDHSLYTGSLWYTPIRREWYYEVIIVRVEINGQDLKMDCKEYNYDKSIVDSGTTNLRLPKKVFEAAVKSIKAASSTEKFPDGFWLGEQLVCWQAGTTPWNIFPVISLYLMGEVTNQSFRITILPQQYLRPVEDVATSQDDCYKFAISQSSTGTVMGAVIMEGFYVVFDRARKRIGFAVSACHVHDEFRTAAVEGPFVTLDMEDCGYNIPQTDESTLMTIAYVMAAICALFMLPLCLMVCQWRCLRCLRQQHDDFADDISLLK
- ASSAY_NOTES: Inhibition of BACE by cells based assay
pIC50: −log10 of the molar value.

QUERY_SMILES	pIC50
CC(=O)N[C@@H](Cc1cc(F)cc(F)c1)[C@H](O)CN[C@H]1CC2(CCC2)Oc2ncc(CC(C)(C)C)cc21	8.18
COc1ccc(C[C@H](NC(C)=O)[C@H](O)CN[C@H]2CC3(CCC3)Oc3ncc(CC(C)(C)C)cc32)cc1F	8.07
CC(=O)N[C@@H](Cc1ccc(F)c(C#N)c1)[C@H](O)CN[C@H]1CC2(CCC2)Oc2ncc(CC(C)(C)C)cc21	8.35
CC(=O)N[C@@H](Cc1ccc(OC(F)(F)F)cc1)[C@H](O)CN[C@H]1CC2(CCC2)Oc2ncc(CC(C)(C)C)cc21	7.19
CC(=O)N[C@@H](Cc1ccccc1)[C@H](O)CN[C@H]1CC2(CCC2)Oc2ccc(CC(C)(C)C)cc21	7.09

---

- ASSAY_NOTES: Clearance in mouse at 2 mg/kg, iv
- Format: ADME, organism-based
- Design: dose 2 mg/kg, route intravenous
- TEST_SETTINGS: in vivo
MEASURED_ENDPOINT: clearance (mL/min/kg)

QUERY_SMILES	UNIT	VAL
CCc1ccc2c(c1)[C@@H](NC[C@@H](O)[C@H](Cc1ccccc1)NC(=O)c1cc(-c3ccccn3)c(=O)n(C3CCCC3)c1)CC1(CCC1)O2	mL/min/kg	93.3

---

- ASSAY_NOTES: Intrinsic clearance in rat liver microsomes at 1 uM after 30 mins
- Format: ADME, Microsome
- TEST_SETTINGS: read-out: CLH

COMPOUND	microsomal CLint at 1 µM [µL/min/mg]
CC(=O)N[C@@H](Cc1ccc(F)c(OC(F)(F)F)c1)[C@H](O)CN[C@H]1CC2(CCC2)Oc2ncc(CC(C)(C)C)cc21	220
CC(=O)N[C@@H](Cc1ccccc1F)[C@H](O)CN[C@H]1CC2(CCC2)Oc2ncc(CC(C)(C)C)cc21	206
CC(=O)N[C@@H](Cc1ccc(F)c(C(F)(F)F)c1)[C@H](O)CN[C@H]1CC2(CCC2)Oc2ncc(CC(C)(C)C)cc21	116
CC(=O)N[C@@H](Cc1ccc(C)c(F)c1)[C@H](O)CN[C@H]1CC2(CCC2)Oc2ncc(CC(C)(C)C)cc21	155
CC(=O)N[C@@H](Cc1ccccc1)[C@H](O)CN[C@H]1CC2(CCC2)Oc2ncc(CC(C)(C)C)cc21	241
CC(=O)N[C@@H](Cc1ccc(Cl)cc1)[C@H](O)CN[C@H]1CC2(CCC2)Oc2ncc(CC(C)(C)C)cc21	160
COc1cc(C[C@H](NC(C)=O)[C@H](O)CN[C@H]2CC3(CCC3)Oc3ncc(CC(C)(C)C)cc32)ccc1F	165
CC(=O)N[C@@H](Cc1ccc(C(F)(F)F)c(F)c1)[C@H](O)CN[C@H]1CC2(CCC2)Oc2ncc(CC(C)(C)C)cc21 (mixture of isomers)	121
